Biological target: T1, Murine RANK-Fc (mouse, UniProt O35305 31-214)
T1 sequence (looked up): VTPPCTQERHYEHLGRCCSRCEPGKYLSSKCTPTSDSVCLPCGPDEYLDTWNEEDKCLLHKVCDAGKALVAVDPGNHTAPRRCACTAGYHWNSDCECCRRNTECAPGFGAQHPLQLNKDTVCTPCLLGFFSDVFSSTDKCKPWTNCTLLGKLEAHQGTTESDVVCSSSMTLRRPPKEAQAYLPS
Assay: SPR
observable: Kd (nM)
The answer is to be given in nM; state only the numeric part.

Previously resolved entries follow.
# binder, unitAbbrev, Kd
rows = [
    ("RANKL_WT (mouse soluble RANKL, aa 160–316) (ligand, UniProt O35235 160-316, looked up) EAQPFAHLTINAASIPSGSHKVTLSSWYHDRGWAKISNMTLSNGKLRVNQDGFYYLYANICFRHHETSGSVPTDYLQLMVYVVKTSIKIPSSHNLMKGGSTKNWSGNSEFHFYSINVGGFFKLRAGEEISIQVSNPSLLDPDQDATYFGAFKVQDID", "nM", 0.0119),
    ("RANKL_Q236P (ligand, mouse, UniProt O35235 160-316, looked up) EAQPFAHLTINAASIPSGSHKVTLSSWYHDRGWAKISNMTLSNGKLRVNQDGFYYLYANICFRHHETSGSVPTDYLPLMVYVVKTSIKIPSSHNLMKGGSTKNWSGNSEFHFYSINVGGFFKLRAGEEISIQVSNPSLLDPDQDATYFGAFKVQDID", "nM", 0.0198),
]

Now consider a different binder.
# binder RANKL_Q236A (ligand, mouse, UniProt O35235 160-316, looked up) EAQPFAHLTINAASIPSGSHKVTLSSWYHDRGWAKISNMTLSNGKLRVNQDGFYYLYANICFRHHETSGSVPTDYLALMVYVVKTSIKIPSSHNLMKGGSTKNWSGNSEFHFYSINVGGFFKLRAGEEISIQVSNPSLLDPDQDATYFGAFKVQDID ; its Kd = 0.0215
